Listed here: items and their measured pIC50.
Target: vanilloid receptor (Rattus norvegicus)
Construct: DRG nerve cells from the primary culture of 2 days were equilibrated; endogenous in cells; host or cells: primary culture of dorsal root ganglion neurons from neonatal SD rats
Sequence (O35433 whole entry): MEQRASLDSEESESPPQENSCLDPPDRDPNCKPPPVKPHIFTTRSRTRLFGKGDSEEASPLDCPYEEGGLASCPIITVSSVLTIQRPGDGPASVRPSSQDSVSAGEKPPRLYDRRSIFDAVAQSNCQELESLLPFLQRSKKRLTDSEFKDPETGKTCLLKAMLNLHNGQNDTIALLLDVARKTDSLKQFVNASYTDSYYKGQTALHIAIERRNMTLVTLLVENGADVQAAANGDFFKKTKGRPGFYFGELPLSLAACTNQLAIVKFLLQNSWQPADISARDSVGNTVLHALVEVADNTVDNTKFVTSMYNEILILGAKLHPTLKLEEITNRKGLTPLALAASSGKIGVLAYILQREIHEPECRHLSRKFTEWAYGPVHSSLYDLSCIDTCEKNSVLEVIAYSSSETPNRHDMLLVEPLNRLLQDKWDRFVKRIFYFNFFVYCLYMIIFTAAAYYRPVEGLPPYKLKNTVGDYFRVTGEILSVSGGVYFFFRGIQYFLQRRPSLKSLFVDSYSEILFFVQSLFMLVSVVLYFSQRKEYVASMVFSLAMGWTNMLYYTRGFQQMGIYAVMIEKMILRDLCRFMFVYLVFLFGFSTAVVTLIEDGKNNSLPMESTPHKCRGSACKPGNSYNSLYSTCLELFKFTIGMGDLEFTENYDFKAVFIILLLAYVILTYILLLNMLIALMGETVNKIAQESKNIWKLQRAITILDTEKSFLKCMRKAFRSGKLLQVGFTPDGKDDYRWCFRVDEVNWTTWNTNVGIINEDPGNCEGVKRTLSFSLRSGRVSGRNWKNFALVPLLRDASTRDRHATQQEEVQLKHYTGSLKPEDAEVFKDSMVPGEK
Assay: 45Ca influx test in cultured neonatal rat DRG neurons, inhibition of capsaicin response
Type: cell-based
Conditions: neonatal rat DRG neurons, capsaicin 0.5 μM, 45Ca influx; read-out: Antagonist Calcium Uptake Test (IC50)
# log scale: pIC50 equals minus log10 of the concentration in mol/L

Some solved entries appear below for comparison.
>  <molecule>
CCCCc1nc(C(F)(F)F)ccc1C#CC(=O)NCc1ccc(NS(C)(=O)=O)cc1 [Example 266]

>  <assayed target>
vanilloid receptor (Rattus norvegicus)

>  <pIC50>
5.85

$$$$
>  <molecule>
C#Cc1cc(CNC(=O)/C=C/c2ccc(C(F)(F)F)nc2N2CCCCC2)cc(F)c1NS(C)(=O)=O [Example 24]

>  <assayed target>
vanilloid receptor (Rattus norvegicus)

>  <pIC50>
6.47

$$$$
>  <molecule>
Cc1cc(CNC(=O)/C=C/c2ccc(C(F)(F)F)nc2CC(C)C)cc(F)c1NS(C)(=O)=O [Example 164]

>  <assayed target>
vanilloid receptor (Rattus norvegicus)

>  <pIC50>
7.08

$$$$

The record that follows has no pIC50 shown yet.
Challenge: Name the recorded pIC50 of C#Cc1cc(CNC(=O)/C=C/c2ccc(C(F)(F)F)nc2N2CCCC(C(=O)OCC)C2)cc(F)c1NS(C)(=O)=O (stereo not shown) [Example 114] , assay system vanilloid receptor (Rattus norvegicus).
Response given: 6.37
